Reference source: PubChem BioAssay (NCI)

# Test system: HOP-62 NSCLC
# method: NCI-60 one-dose screen, 48 h
# experimentalConditions: 10 µM unless noted
This is part of a sample that, as a whole, favours compounds with a hit. Of some 83,000 tested, about 20% had one in any assay. The source made the active and inactive calls. The calls were made as follows: active = growth percent below 10; inactive = the rest.
Labels: active, inactive

structureSmilesString	assignedClass
COc1cc2c(c(OC)c1OC)-c1cc(I)c(O)cc1[C@@H](NC(C)=O)CC2	inactive
COc1ccc2c(c1)c(-c1noc(C(=O)c3cn(C)c4ncc(Br)cc34)n1)cn2C	inactive
CCOC(=O)c1cnc2ccc(Br)cc2c1Nc1cccc(S(N)(=O)=O)c1	inactive
O=C(Nc1ccc(F)cc1)c1ccccc1	inactive
CNC(=O)c1cc(Oc2cccc3nc(NC(=O)Nc4cc(C(F)(F)F)cc(C(F)(F)F)c4)ccc23)ccn1	active
COc1cc2c(cc1OCCCN1CCN(CCCOc3cc4c(cc3OC)C(=O)N3C[C@H](F)C[C@H]3C=N4)CC1)N=C[C@@H]1C[C@@H](F)CN1C2=O	inactive
O=[N+]([O-])c1cccc(N=NNc2cccc([N+](=O)[O-])c2)c1	inactive
O=c1[nH]c2cc(Cl)c(Cl)cc2n2cc3ncccc3c12	inactive
CC(C)c1ccc(C(=O)Nc2sc3c(c2C#N)CCC(=O)C3)cc1	inactive
Cn1cc(-c2nnc(-c3cn(C)c4ncccc34)o2)c2ccccc21	inactive

###

# System: SF-295 CNS
# method: NCI-60 one-dose screen, 48 h
# experimentalConditions: 10 µM unless noted
About 83,000 compounds went through this panel and 20% of them were active in at least one assay; those are over-represented in the sample as a whole. The source made the active and inactive calls. Rule for the calls: active = growth percent below 10; inactive = the rest.
Labels: class 1 (active), class 0 (inactive)

structureSmilesString	assignedClass
O=C(O)c1ccccc1C(F)(F)F	class 0
CCOc1ccc2sc(NS(=O)(=O)c3ccc(N)cc3)nc2c1	class 0
C#C[C@]1(O)CC[C@H]2[C@@H]3CC=C4c5nc(Nc6ccccn6)sc5CC[C@]4(C)[C@H]3CC[C@@]21C	class 1
CCOC(=O)c1cc(C(=O)c2ccc(OC)c(OC)c2)n2ccc(-c3ccccn3)cc12	class 0
CCCCCN(CCCCC)CCCCCCCCN1CCCc2ccccc21	class 0

###

# System: MCF7 breast
# method: NCI-60 one-dose screen, 48 h
# experimentalConditions: 10 µM unless noted
About 83,000 compounds went through this panel and 20% of them were active in at least one assay; those are over-represented in the sample as a whole. Calls of active or inactive are those of the source. The calls were made as follows: active = growth percent below 10; inactive = the rest.
Labels: active, inactive

compound	assignedClass
Ic1ccc2[nH]cc(SSc3c[nH]c4ccc(I)cc34)c2c1	active
Cn1cc(-c2noc(-c3cn(C)c4ncc(F)cc34)n2)c2cc(Br)ccc21	inactive
CCCCC(CC)COC(=O)C[N+](C)(C)CCOC(c1ccccc1)c1ccccc1 (stereo not drawn)	inactive
CC(=O)OC[C@]12CC[C@@H](C(=O)CBr)[C@@H]1[C@H]1CC[C@@H]3[C@@]4(C)CCCNC(C)(C)[C@@H]4CC[C@@]3(C)[C@]1(C)CC2	active
O=C(O)c1ccccc1C(F)(F)F	inactive
C=C(C)[C@@H]1CC[C@]2(C(=O)NCCNCCNCCN)CC[C@]3(C)[C@H](CC[C@@H]4[C@@]5(C)CCC(=O)C(C)(C)[C@@H]5CC[C@]43C)[C@@H]12	active
COc1cc(NN=C(c2ccc(O)cc2)c2ccc(O)cc2)c([N+](=O)[O-])cc1[N+](=O)[O-]	active
C=C(C)[C@@H]1CC[C@]2(C(N)=O)CC[C@]3(C)[C@H](CC[C@@H]4[C@@]5(C)CC[C@H](O)C(C)(C)[C@@H]5CC[C@]43C)[C@@H]12	active

###

# Tested on: UACC-62 melanoma
# method: NCI-60 one-dose screen, 48 h (100 = growth as untreated, 0 = no growth, -100 = all killed)
# experimentalConditions: 10 µM unless noted
Compounds without any hit were thinned out: in the full panel of roughly 83,000, 20% have a hit. Calls of active or inactive are those of the source. How the source made its calls: active means growth percent below 10; inactive means the rest.
measuredParameter: growth

compound	measuredParameter	endpointResult
CCOC(=O)c1c[nH]n2c(=S)ncnc12	growth	97.5% (inactive)
Cc1nn(-c2ccccc2)c(N2CCOCC2)c1-c1nc2ccc([N+](=O)[O-])cc2[nH]1	growth	83.4% (inactive)
COc1cc(-c2nc(SCCC(C)C)nc(Nc3ccc(S(N)(=O)=O)cc3)c2C#N)cc(OC)c1OC	growth	45.7% (inactive)
CCOc1ccc(/C=C(\C#N)c2cc3ccccc3[nH]2)cc1	growth	43.9% (inactive)
CCOC(=O)c1ccc2nc(-c3c(C)nn(-c4ccccc4)c3N3CCOCC3)[nH]c2c1	growth	77.5% (inactive)
C=C(C)[C@@H]1CC[C@]2(C)[C@H](CC[C@@H]3[C@@H]([C@@](C)(O)CCC=C(C)C)CC[C@]32C)[C@@]1(C)CCC(=O)N1CCN(C)CC1	growth	-95.2% [100 µM] (active)
N#C/C(C(=O)c1ccccc1)=C1/C(=O)Nc2ccc(F)cc21	growth	92.7% (inactive)
N#Cc1c(Cl)nc(SCC2CO2)nc1-c1ccccc1 (stereo not given)	growth	107% (inactive)
CSc1nc2sc3cc(Cl)c(Cl)cc3n2c(=N)c1C#N	growth	82.2% (inactive)
C[n+]1c(-c2ccccc2)c2cc(N)ccc2c2ccccc21	growth	0.188% (active)
Cc1ccc(-c2cc(-c3ccc(C)cc3)nc(NCCNc3ccnc4cc(Cl)ccc34)n2)cc1	growth	-79.9% (active)
O=C1/C(=C/c2cccc(OCc3ccccc3)c2)Oc2cc(OCCN3CCCCC3)ccc21	growth	77.8% (inactive)
CCOC(=O)c1nn(C2CCCCO2)c2ccc(NC(=O)Cn3nnc4ccccc43)cc12 (stereo not given)	growth	99.9% (inactive)
ClC1=C(Cl)C(Cl)=C(Cl)C1=Cc1ccccc1	growth	-77% (active)
CSc1cccc([N+](=O)[O-])c1	growth	98% (inactive)
Cc1ccccc1-n1nnc(C(=O)Nc2nc3ccc(F)cc3s2)c1C	growth	59.2% (inactive)
C#C[C@]1(O)CC[C@H]2[C@@H]3CC=C4c5nc(Nc6ccccc6[N+](=O)[O-])sc5CC[C@]4(C)[C@H]3CC[C@@]21C	growth	67.8% (inactive)
COC(=O)[C@@H](NC(=O)NC(=O)NC(=O)CI)C(C)C	growth	83.1% (inactive)
O=C(N/N=C1\c2ccccc2-c2cccc(C(=O)O)c21)c1ccc(O)cc1	growth	93.8% (inactive)
Cc1ccc(NC(=O)N[C@@H](Cc2cc(F)cc(F)c2)C(=O)N[C@@H]2C(=O)N3CCC[C@H]3C(=O)N3CCCC[C@H]3C(=O)N[C@@H](C)C(=O)N3C[C@H](C)C[C@H]3C(=O)O[C@H]2C)cc1	growth	25.8% (inactive)

###

# Tested on: SF-539 CNS
# method: NCI-60 one-dose screen, 48 h (100 = growth as untreated, 0 = no growth, -100 = all killed)
# experimentalConditions: 10 µM unless noted
# Method: Cells are grown in 96 well plates and exposed to the test compound for 48 hours. Compounds are tested at a single concentration, which is 10^-5 M for most compounds. The reported endpoint is percent growth (GI% or GIPRCNT), where numbers from 0 - 100% represent growth inhibition, and numbers from -100% - 0 represent cell death. For example, a value of 40 represents 60% growth inhibition. A value of 0 means no net growth occurred over the course of the experiment. […]
The panel holds about 83,000 compounds, 20% with a hit somewhere; the sample as a whole holds those more often.
Measured growth accompanies every entry in the list below.
measuredParameter: growth (%)

compound	testTarget	endpointResult
O=C(Nc1ccc(F)cc1)c1ccccc1	SF-539 CNS	99.3
CCCCCCCCCCCCCCNC(=O)Nc1ccc(Cl)c(Cl)c1	SF-539 CNS	51.1
O=C(N[C@@H]1CCCc2ccccc21)[C@H](CCC(=O)N1CCN(C2CCCCC2)CC1)N1C(=O)[C@@H](N2C(=O)OC[C@@H]2c2ccccc2)[C@H]1/C=C/c1ccccc1	SF-539 CNS	4.65
C1=C[C@H]2O[C@@H]1c1ccc3[nH]ccc3c12	SF-539 CNS	107
CC1Cc2c(ncnc2-n2cnc3ccccc32)N(C)c2ccccc21 (stereo not given)	SF-539 CNS	17
Cc1ccc(Cn2c(O)c(N=NC(=O)c3ccc(S(N)(=O)=O)cc3)c3ccccc32)cc1	SF-539 CNS	108
O=S(=O)(NCc1ccccc1)c1ncnc2nc[nH]c12	SF-539 CNS	98.1
CCOC(=O)C(C(C)=O)c1nc2sc3cc(Cl)c(Cl)cc3n2c(=O)c1C#N (stereo not given)	SF-539 CNS	86.2
c1ccc(-c2n[nH]c(-c3ccccn3)n2)nc1	SF-539 CNS	106
CCOC(=O)c1nn(C2CCCCO2)c2ccc(NS(=O)(=O)c3ccc(C)cc3)cc12 (stereo not given)	SF-539 CNS	105

###

# System: RXF 393 renal
# method: NCI-60 one-dose screen, 48 h
# experimentalConditions: 10 µM unless noted
Compounds without any hit were thinned out: in the full panel of roughly 83,000, 20% have a hit. Active and inactive are the calls of the source. How the source made its calls: active means growth percent below 10; inactive means the rest.
Classes used: active, inactive

compound	assignedClass
C=C(C)[C@@H]1CC[C@]2(C(=O)OC)CC[C@]3(C)[C@H](CC[C@@H]4[C@@]5(C)CC/C(=N\OCCC(=NCCC#N)NOCCC#N)C(C)(C)[C@@H]5CC[C@]43C)[C@@H]12	active
C#C[C@]1(O)CC[C@H]2[C@@H]3CC=C4c5nc(Nc6ncccn6)sc5CC[C@]4(C)[C@H]3CC[C@@]21C	active
CCOC(=O)C(=Cc1ccccc1[N+](=O)[O-])C(=O)OCC	active
CC1(C)CC[C@]2(C(=O)O)CC[C@]3(C)C(=CC[C@@H]4[C@@]5(C)C/C(=C/c6cccnc6)[C@H](O)C(C)(C)[C@@H]5CC[C@]43C)[C@@H]2C1	active
COc1cc2c(c(OC)c1OC)-c1ccc(NNC(N)=S)c(=O)cc1[C@@H](NC(C)=O)CC2	active
COCCCNc1nc(NC(=O)c2cc(Br)cc(C(F)(F)F)c2)cc(-c2cccnc2)n1	inactive
CC(C)=CC/C=C(/C)[C@H]1CC[C@]2(C)[C@@H]1CC[C@@H]1[C@@]3(C)CC/C(=N/O)C(C)(C)[C@@H]3CC[C@]12C	inactive
CCCCCCCCCCCCCCCCCCNC(=S)N/N=C/c1ccc(OC)c(OC)c1	inactive
CCOC(=O)c1sc2nc(-c3cc(OC)c(OC)c(OC)c3)nc(N3CCOCC3)c2c1C	inactive
COc1ccc2nc3cc(Cl)ccc3c(Nc3ccc(O)c(CN4CCCC4)c3)c2c1	active
CC[C@]12C=CCN3CC[C@@]4(c5ccc(OC)cc5N(C)[C@H]4[C@@](O)(C(=O)OC)[C@@H]1OC(=O)CCC(=O)O[C@H]1CC[C@H]4[C@@H]5CCC6=CC(=O)CC[C@@H]6[C@H]5CC[C@]14C)[C@@H]32	active
CSc1nc(N)c(N=Nc2ccc(S(=O)(=O)Nc3nnc(C)s3)cc2)c(=O)[nH]1	inactive
Nn1c(Nc2ccc(S(=O)(=O)Nc3ncccn3)cc2)nnc(/C=C/c2c(O)ccc3ccccc23)c1=O	inactive
c1nc(N2CCOCC2)c2[nH]ccc2n1	inactive
COc1cc(C(=O)/C=C/c2c(-c3ccc(F)cc3)nc3sccn23)cc(OC)c1OC	active
COc1ccc(C2=C(c3cn(C)c4ccccc34)C(=O)OC2)cc1OC	active
CCCN1CC(c2ccc(OC)c(OC)c2)=C(c2cn(C(=O)OCC)c3ccccc23)C1=O	active
O=S(=O)(NCc1ccccc1)c1ncnc2nc[nH]c12	inactive
Cc1cnc(N)nc1OCCNC(=O)c1cccc(-c2ccc(S(=O)(=O)Nc3ccc4c(c3)N(C(=O)C3CC3)CCC4)cc2)c1	inactive
CC[C@]1(O)CC2CN(CCc3c([nH]c4ccccc34)[C@@](C(=O)OC)(c3cc4c(cc3OC)N(C=O)[C@H]3[C@@](O)(C(=O)OC)[C@H](OC(C)=O)[C@]5(CC)C=CCN6CC[C@]43[C@@H]65)C2)C1 (stereo not given in full)	inactive
C[n+]1c(-c2ccccc2)c2cc(N)ccc2c2ccccc21	inactive
C[C@]12CCc3c(ccc4cc(O)ccc34)[C@@H]1CC[C@H]2O	inactive
c1ccc(-c2n[nH]c(-c3ccccn3)n2)nc1	inactive
O=C1Cc2c(sc3c(F)cccc23)C(c2ccccc2[N+](=O)[O-])N1 (stereo not given)	inactive
CCN1c2ccccc2C(Cl)(c2ccc(N(C)C)cc2)c2ccccc21	inactive
CCOC(=O)c1nc2c3ccccc3ccn2c1C(=O)OC	inactive
C=C(C)[C@@H]1CC[C@]2(C(=O)NCCNCCNC(=O)OC(C)(C)C)CC[C@]3(C)[C@H](CC[C@@H]4[C@@]5(C)CCC(=O)C(C)(C)[C@@H]5CC[C@]43C)[C@@H]12	inactive
C=C1C(=O)O[C@H]2[C@H]1CC/C(COC(=O)NCc1ccc(Cn3c(=O)sn(-c4ccc(Cl)cc4)c3=O)cc1)=C\CC[C@@]1(C)O[C@@H]21	inactive
O=C1Nc2ccccc2/C1=C/C(=O)c1ccc(N2CCCCC2)cc1	inactive
CC(=O)OC[C@]12CC[C@@H](C(=O)CBr)[C@@H]1[C@H]1CC[C@@H]3[C@@]4(C)CCCNC(C)(C)[C@@H]4CC[C@@]3(C)[C@]1(C)CC2	active
CC(=O)O.CC(=O)O.O.[Fe]	inactive
CCN(CC)c1cc(N)c(Cc2c(N)cc(N(CC)CC)cc2Cl)c(Cl)c1	inactive
CN(C)c1cc(NN=C(c2ccc(O)cc2)c2ccc(O)cc2)c([N+](=O)[O-])cc1[N+](=O)[O-]	active
c1coc2occoc=2o1	inactive
C[N+](C)(C)c1ncnc2[n-]cnc12	inactive
